Target: Prohibitin-2 (Homo sapiens)
Test: Induction of PHB2-mediated melanogenesis in human HBL cells assessed as pigmentation at 1 uM after 10 days relative to control
Format: cell-based
Lab note: anything with fold change (FC) below 0.9 is marked MET; values at 0.9 or higher are marked NOT MET.

>>> group("Fc1c(F)c(F)c(Oc2nc(N3CCC(N4CCCCC4)CC3)nc(N3CCCc4ccccc4C3)n2)c(F)c1F")
"MET"
>>> group("CN(C)CCNc1nc(NCc2cccc(F)c2)nc(Oc2c(F)c(F)c(F)c(F)c2F)n1")
"NOT MET"
>>> group("Fc1cccc(CNc2nc(NCc3ccncc3)nc(Oc3c(F)c(F)c(F)c(F)c3F)n2)c1")
"MET"
>>> group("CCC(Nc1nc(N[C@H](CC)CO)nc(Oc2c(F)c(F)c(F)c(F)c2F)n1)c1cccc(F)c1 (some centres undefined)")
"NOT MET"
>>> group("CCN(Cc1ccccc1)c1nc(NCCN(C)C)nc(Oc2c(F)c(F)c(F)c(F)c2F)n1")
"NOT MET"

Now look at this one.
Exercise: A record lists NCCOCCOCCNc1nc(NCc2cccc(F)c2)nc(Oc2c(F)c(F)c(F)c(F)c2F)n1 . Is its fold change (FC) below 0.9?
Solution: NOT MET

###

Target: UniProt Q99623
Sequence (Q99623 whole entry): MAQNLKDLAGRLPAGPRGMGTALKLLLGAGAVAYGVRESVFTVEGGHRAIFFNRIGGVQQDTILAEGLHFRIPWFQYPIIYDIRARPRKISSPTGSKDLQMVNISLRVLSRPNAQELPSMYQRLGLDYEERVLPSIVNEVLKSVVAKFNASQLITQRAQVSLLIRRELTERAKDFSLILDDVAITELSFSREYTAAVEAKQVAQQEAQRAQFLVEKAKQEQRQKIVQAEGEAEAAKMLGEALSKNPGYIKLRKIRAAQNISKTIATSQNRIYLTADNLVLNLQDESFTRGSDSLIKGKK
Assay: Induction of PHB2-mediated melanogenesis in human HBL cells assessed as pigmentation at 1 uM after 10 days relative to control
Type: cell-based
Catalogue of fold change (FC) values
Answer with a bare number; do not write a unit.

Example entries begin here.
>>> endpointvalue("CC[C@@H](CO)Nc1nc(NCc2cccc(F)c2)nc(Oc2c(F)c(F)c(F)c(F)c2F)n1")
0.8
>>> endpointvalue("CN1CCN(c2nc(NCc3cccc(F)c3)nc(Oc3c(F)c(F)c(F)c(F)c3F)n2)CC1")
0.78
>>> endpointvalue("Fc1cccc(CNc2nc(NCCNc3ccccn3)nc(Oc3c(F)c(F)c(F)c(F)c3F)n2)c1")
0.97
>>> endpointvalue("Fc1cccc(CNc2nc(NCc3ccccc3)nc(Oc3c(F)c(F)c(F)c(F)c3F)n2)c1")
0.89
>>> endpointvalue("Fc1cccc(CNc2nc(NCc3ccccn3)nc(Oc3c(F)c(F)c(F)c(F)c3F)n2)c1")
1.02
>>> endpointvalue("CC[C@H](CO)Nc1nc(Oc2c(F)c(F)c(F)c(F)c2F)nc(N2CCCc3ccccc3C2)n1")
0.85

Exercise: Consider the molecule CC[C@H](CO)Nc1nc(Oc2c(F)c(F)c(F)c(F)c2F)nc(N(C)[C@@H](C)c2ccccc2)n1 and give its measured fold change (FC).
Solution: 0.96

Exercise: Value lookup for fold change (FC); key = CC[C@H](CO)Nc1nc(NC(C)c2cccc(F)c2)nc(Oc2c(F)c(F)c(F)c(F)c2F)n1 (some centres undefined)
Solution: 0.78

Exercise: Need fold change (FC) of C[C@@H](c1ccccc1)N(C)c1nc(NCCN(C)C)nc(Oc2c(F)c(F)c(F)c(F)c2F)n1 , thanks.
Solution: 0.94

###

Here the recorded fold change (FC) is given for each entry.
Molecular target: UniProt Q99623
Assay: Induction of PHB2-mediated melanogenesis in human HBL cells assessed as pigmentation at 1 uM after 10 days relative to control
Assay type: cell-based
Form field (numeric): enter value without unit.

Observe how each entry below is paired with its result.
>>> endpointvalue("CNc1nc(Oc2c(F)c(F)c(F)c(F)c2F)nc(N2CCCc3ccccc3C2)n1")
0.8
>>> endpointvalue("FC1(F)N=C(c2ccc(Cl)cc2)SC1(F)c1ccc(Cl)cc1 (centres undefined)")
1.51
>>> endpointvalue("CNc1nc(Oc2c(F)c(F)c(F)c(F)c2F)nc(N2CCc3ccccc3C2)n1")
0.84

Could you now consider this next compound?
Exercise: I'm curious: which fold change (FC) was measured for CNc1nc(Oc2c(F)c(F)c(F)c(F)c2F)nc(N(C)Cc2cccc(F)c2)n1 tested on UniProt Q99623?
Solution: 0.84
